measurement.notes: Antioxidant activity assessed as galvinoxyl radical scavenging activity at 1 uM after 19 hrs by UV spectrophotometric analysis
Type: physicochemical
property.measured: Activity (%)
Supply the numeric figure in %, leaving out any unit text.

Sample CCN(Cc1cccc2[nH]c3ccccc3c12)C(=O)/C=C/c1ccc(O)c(OC)c1 — what was its Activity?
24.7

Sample COc1ccc2c(c1)[nH]c1cccc(CN(C(=O)/C=C/c3ccc(O)c(OC)c3)C3CCCC3)c12 — what was its Activity?
14.8

Sample COc1cc(/C=C/C(=O)N(Cc2cccc3[nH]c4ccccc4c23)C2CCCCC2)ccc1O — what was its Activity?
3.3

Sample COc1cc(/C=C/C(=O)O)ccc1O [FERULATE] — what was its Activity?
6.6

Sample CCN(Cc1cccc2[nH]c3cc(Cl)ccc3c12)C(=O)/C=C/c1ccc(O)c(OC)c1 — what was its Activity?
8.3

Sample COc1ccc2c(c1)[nH]c1cccc(CN(C(=O)/C=C/c3ccc(O)c(OC)c3)C3CCCCC3)c12 — what was its Activity?
25.6

Sample COc1cc(/C=C/C(=O)N(Cc2cccc3[nH]c4ccccc4c23)C2CCCC2)ccc1O — what was its Activity?
25.9

Sample COc1cc(/C=C/C(=O)N(Cc2cccc3[nH]c4ccccc4c23)C(C)C)ccc1O — what was its Activity?
24.1

Sample COc1ccc2c(c1)[nH]c1cccc(CN(C(=O)/C=C/c3ccc(O)c(OC)c3)C(C)C)c12 — what was its Activity?
1.1

Sample CCN(Cc1cccc2[nH]c3cc(OC)ccc3c12)C(=O)/C=C/c1ccc(O)c(OC)c1 — what was its Activity?
11.1
